Measured viability, T/C values are reported for all entries that follow.
System: 926638-142-R-J1-PDC complex spheroid viability
Assay: Anticancer human tumor 926638-142-R-J1-PDC patient-derived endometrial carcinoma cell line growth inhibition [POLQ]
Settings: second compound 0.316 µM; first compound 0.0316 µM; active compounds read low

[
  {
    "COMPOUND": "C#Cc1c(F)ccc2cc(O)cc(-c3ncc4c(N5CC6CCC(C5)N6)nc(OCC56CCCN5CC(F)C6)nc4c3F)c12 (centres undefined) + Nc1ccc(C#CCN(C(=O)Cc2ncc(C(F)(F)F)cc2C(F)(F)F)c2ccc(F)cc2)nn1",
    "RECORDED METRIC": "viability, T/C",
    "VALUE": "84.4%"
  },
  {
    "COMPOUND": "COc1cccc2c1C(=O)c1c(O)c3c(c(O)c1C2=O)CC(O)(C(=O)CO)CC3OC1CC(N)C(O)C(C)O1 (centres undefined) + Nc1ccc(C#CCN(C(=O)Cc2ncc(C(F)(F)F)cc2C(F)(F)F)c2ccc(F)cc2)nn1",
    "RECORDED METRIC": "viability, T/C",
    "VALUE": "78.7%"
  },
  {
    "COMPOUND": "CCc1cc2c(N3CCc4c(cc(Cn5ccnc5)cc4-c4cn(C)nc4C(F)(F)F)C3=O)cc(C)nc2c(OC)n1 + COC1C(OC(N)=O)C(O)C(Oc2ccc3c(O)c(NC(=O)c4ccc(O)c(CC=C(C)C)c4)c(=O)oc3c2C)OC1(C)C",
    "RECORDED METRIC": "viability, T/C",
    "VALUE": "68%"
  }
]

Prompt: Give the reported value of viability, T/C for this record: CC[C@@]1(O)C(=O)OCc2c1cc1n(c2=O)Cc2cc3c(CN(C)C)c(O)ccc3nc2-1 + COC1C(OC(N)=O)C(O)C(Oc2ccc3c(O)c(NC(=O)c4ccc(O)c(CC=C(C)C)c4)c(=O)oc3c2C)OC1(C)C
Completion: 76.2%

Prompt: Give the reported value of viability, T/C for this record: COc1cc(C2c3cc4c(cc3C(OC3OC5COC(C)OC5C(O)C3O)C3COC(=O)C23)OCO4)cc(OC)c1O (centres undefined) + COC1C(OC(N)=O)C(O)C(Oc2ccc3c(O)c(NC(=O)c4ccc(O)c(CC=C(C)C)c4)c(=O)oc3c2C)OC1(C)C
Completion: 88.2%

Prompt: Give the reported value of viability, T/C for this record: C=CC(=O)N1CCN(c2nc(=O)n(-c3c(C)ccnc3C(C)C)c3nc(-c4c(O)cccc4F)c(F)cc23)C(C)C1 (centres undefined) + COC1C(OC(N)=O)C(O)C(Oc2ccc3c(O)c(NC(=O)c4ccc(O)c(CC=C(C)C)c4)c(=O)oc3c2C)OC1(C)C
Completion: 101%

Prompt: Give the reported value of viability, T/C for this record: C=CC(=O)N1CCN(c2nc(=O)n(-c3c(C)ccnc3C(C)C)c3nc(-c4c(O)cccc4F)c(F)cc23)C(C)C1 (centres undefined) + Cc1cccc(N(C)C(=O)C2C(O)CCN2c2nc(C)cc(C(F)(F)F)c2C#N)c1
Completion: 97.4%

Prompt: Give the reported value of viability, T/C for this record: COc1cc2cc(C(=O)CCC(=O)O)sc2cc1OC + COC1C(OC(N)=O)C(O)C(Oc2ccc3c(O)c(NC(=O)c4ccc(O)c(CC=C(C)C)c4)c(=O)oc3c2C)OC1(C)C
Completion: 105%

Prompt: Give the reported value of viability, T/C for this record: CCc1cc2c(N3CCc4c(cc(Cn5ccnc5)cc4-c4cn(C)nc4C(F)(F)F)C3=O)ccnc2c(OC)n1 + COC1C(OC(N)=O)C(O)C(Oc2ccc3c(O)c(NC(=O)c4ccc(O)c(CC=C(C)C)c4)c(=O)oc3c2C)OC1(C)C
Completion: 77.7%

----------
Test system: 926638-142-R-J1-PDC complex spheroid viability
Experiment: Anticancer human tumor 926638-142-R-J1-PDC cell line growth inhibition [POLQ];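 further: spheroids exposed to drugs for one week before readout; percent viability relative to DMSO vehicle control wells set as 100%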
Conditions: second compound 10 µM; first compound 0.1 µM; active compounds read low
Threshold 80%: viability, T/C strictly smaller gives Met, otherwise Not met.

Previously resolved entries follow.
[
  {
    "COMPOUND": "O=C(c1cc(Cc2n[nH]c(=O)c3ccccc23)ccc1F)N1CCN(C(=O)C2CC2)CC1 + COC1C(OC(N)=O)C(O)C(Oc2ccc3c(O)c(NC(=O)c4ccc(O)c(CC=C(C)C)c4)c(=O)oc3c2C)OC1(C)C",
    "LABEL CLASS": "Not met"
  },
  {
    "COMPOUND": "COc1cccc2c1C(=O)c1c(O)c3c(c(O)c1C2=O)CC(O)(C(=O)CO)CC3OC1CC(N)C(O)C(C)O1 (stereo unspecified) + Cc1cccc(N(C)C(=O)C2C(O)CCN2c2nc(C)cc(C(F)(F)F)c2C#N)c1",
    "LABEL CLASS": "Met"
  },
  {
    "COMPOUND": "CC1COCCN1c1cc(C2(O)CC3CCC(C2)O3)c2cnn(-c3ccn[nH]3)c2n1 (stereo unspecified) + COC1C(OC(N)=O)C(O)C(Oc2ccc3c(O)c(NC(=O)c4ccc(O)c(CC=C(C)C)c4)c(=O)oc3c2C)OC1(C)C",
    "LABEL CLASS": "Met"
  },
  {
    "COMPOUND": "CC1COCCN1c1cc(C2(S(C)(=N)=O)CC2)nc(-c2ccnc3[nH]ccc23)n1 (stereo unspecified) + Cc1cccc(N(C)C(=O)C2C(O)CCN2c2nc(C)cc(C(F)(F)F)c2C#N)c1",
    "LABEL CLASS": "Not met"
  },
  {
    "COMPOUND": "COc1ccc([C@@H](O)c2cc(-c3ncnc4cc(N5CCOCC5)ccc34)c(F)cc2Cl)nn1 + COC1C(OC(N)=O)C(O)C(Oc2ccc3c(O)c(NC(=O)c4ccc(O)c(CC=C(C)C)c4)c(=O)oc3c2C)OC1(C)C",
    "LABEL CLASS": "Not met"
  }
]

Prompt: Quick check: does CCc1c2c(nc3ccc(O)cc13)-c1cc3c(c(=O)n1C2)COC(=O)[C@]3(O)CC + Nc1ccc(C#CCN(C(=O)Cc2ncc(C(F)(F)F)cc2C(F)(F)F)c2ccc(F)cc2)nn1 have viability, T/C under 80%?
Completion: Met

Prompt: Quick check: does CCc1cc2c(N3CCc4c(cc(Cn5ccnc5)cc4-c4cn(C)nc4C(F)(F)F)C3=O)ccnc2c(OC)n1 + COC1C(OC(N)=O)C(O)C(Oc2ccc3c(O)c(NC(=O)c4ccc(O)c(CC=C(C)C)c4)c(=O)oc3c2C)OC1(C)C have viability, T/C under 80%?
Completion: Met

Prompt: Quick check: does O=C(Nc1ccc(O)c(NS(=O)(=O)c2ccc(F)cc2)c1)c1ccc(-c2ccccc2)cc1 + Nc1ccc(C#CCN(C(=O)Cc2ncc(C(F)(F)F)cc2C(F)(F)F)c2ccc(F)cc2)nn1 have viability, T/C under 80%?
Completion: Not met

Prompt: Quick check: does Nc1ccn(C2OC(CO)C(O)C2(F)F)c(=O)n1 (stereo unspecified) + Cc1cccc(N(C)C(=O)C2C(O)CCN2c2nc(C)cc(C(F)(F)F)c2C#N)c1 have viability, T/C under 80%?
Completion: Met

Prompt: Quick check: does O=c1[nH]cc(F)c(=O)[nH]1 + COC1C(OC(N)=O)C(O)C(Oc2ccc3c(O)c(NC(=O)c4ccc(O)c(CC=C(C)C)c4)c(=O)oc3c2C)OC1(C)C have viability, T/C under 80%?
Completion: Not met

----------
Test system: 926638-142-R-J1-PDC complex spheroid viability
Experiment: Anticancer human tumor 926638-142-R-J1-PDC cell line growth inhibition [POLQ];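 further: spheroids exposed to drugs for one week before readout; percent viability relative to DMSO vehicle control wells set as 100%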
Settings: second compound 1 µM; first compound 0.316 µM; active compounds read low
Measured viability, T/C values are reported for all entries that follow.
Record the value in %, omitting the unit from your answer.

[
  {
    "MOLECULE": "COc1cc2cc(C(=O)CCC(=O)O)sc2cc1OC + Nc1ccc(C#CCN(C(=O)Cc2ncc(C(F)(F)F)cc2C(F)(F)F)c2ccc(F)cc2)nn1",
    "U": "%",
    "viability, T/C": 90.4
  },
  {
    "MOLECULE": "CC1COCCN1c1cc(C2(O)CC3CCC(C2)O3)c2cnn(-c3ccn[nH]3)c2n1 (stereo not given) + Cc1cccc(N(C)C(=O)C2C(O)CCN2c2nc(C)cc(C(F)(F)F)c2C#N)c1",
    "U": "%",
    "viability, T/C": 35.8
  },
  {
    "MOLECULE": "C=CCn1c(=O)c2cnc(Nc3ccc(N4CCN(C)CC4)cc3)nc2n1-c1cccc(C(C)(C)O)n1 + COC1C(OC(N)=O)C(O)C(Oc2ccc3c(O)c(NC(=O)c4ccc(O)c(CC=C(C)C)c4)c(=O)oc3c2C)OC1(C)C",
    "U": "%",
    "viability, T/C": 50.9
  },
  {
    "MOLECULE": "COc1ccc([C@@H](O)c2cc(-c3ncnc4cc(N5CCOCC5)ccc34)c(F)cc2Cl)nn1 + COC1C(OC(N)=O)C(O)C(Oc2ccc3c(O)c(NC(=O)c4ccc(O)c(CC=C(C)C)c4)c(=O)oc3c2C)OC1(C)C",
    "U": "%",
    "viability, T/C": 57.7
  }
]

Next up:
Prompt: Give the reported value of viability, T/C for this record: Nc1ccn(C2OC(CO)C(O)C2(F)F)c(=O)n1 (stereo not given) + COC1C(OC(N)=O)C(O)C(Oc2ccc3c(O)c(NC(=O)c4ccc(O)c(CC=C(C)C)c4)c(=O)oc3c2C)OC1(C)C
Completion: 56.6
